- test method notes: TEAD-YAP interaction inhibition, primary screen, TEAD-YAP interaction inhibitor project, luminescence, HEK-TIYL cells (AID 1259422);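 further: 0% = median of test compound wells and 100% = reference inhibitor wells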
- run conditions: TEAD-Gal4/YAP UAS-luciferase luminescence, at 9.12 µM, active compounds read high
About 9,300 (1.5%) of roughly 640,000 compounds were called active. The full list was thinned out, with actives kept by preference.
measurement type: inhibition (%)
Numeric only. Scale: %

Study these solved cases before continuing.
>>> val("CC(=O)c1ccc(N2CCN(c3cccc[n+]3C)CC2)cc1")
-8.59
>>> val("CC(C)N(C(=O)NCCC(=O)c1ccc(F)cc1)C(C)C")
-1.1

Below: the item to evaluate.
Request: Look up inhibition of "CC(C)N(C)C1CCN(S(=O)(=O)c2cccc([N+](=O)[O-])c2)CC1" and report it.
Response: -1.4

###

- test method notes: TEAD-YAP interaction inhibition, primary screen, TEAD-YAP interaction inhibitor project, luminescence, HEK-TIYL cells (AID 1259422);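 further: 0% = median of test compound wells and 100% = reference inhibitor wells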
- run conditions: TEAD-Gal4/YAP UAS-luciferase luminescence, at 9.12 µM
Hit rate of the full screen: of about 640,000 compounds, about 9,300 (1.5%) were called active. No stated cut-off is given here; in the data, active means inhibition above about 32%; inactive means the rest. The entries come from a sample that favours actives as a whole.
Choose one outcome from this list and give only that: Yes = active, No = inactive

The examples below pair each entry with its known result.
>>> class("COc1ccc(C(C)=O)c(OC(=O)Cc2cc(OC)c(OC)c(OC)c2)c1")
"No"
>>> class("CC(=O)NCCCc1ccc(-c2csc(N)n2)cc1")
"Yes"
>>> class("O=C(O)c1ccc(NS(=O)(=O)c2cccc(C(F)(F)F)c2)cc1")
"No"
>>> class("C=CCN(CC=C)C(=O)CSc1nnc2c3ccccc3n(C)c2n1")
"No"
>>> class("CCN1CCN(C2=C(Cl)C(=O)N(c3cccc(C(=O)OC)c3)C2=O)CC1")
"No"
>>> class("OC1CCN(c2ccnc3c(-c4ccoc4)cnn23)CC1")
"No"
>>> class("c1cc(N2CCOCC2)n2ncc(-c3ccc4[nH]ccc4c3)c2n1")
"Yes"
>>> class("CN(C)c1ccc(/C=N/Nc2nc(-c3ccccc3)cs2)cc1")
"No"

Request: Name the outcome recorded for "COCCNCC(=O)Nc1cccc2ccccc12" in the assay.
Response: No

Request: Tell me the assay call for "CCCCCCOc1cccc(NC(=O)Cn2c(-c3nonc3N)nc3ccccc32)c1" please.
Response: No

###

- test method notes: TEAD-YAP interaction inhibition, primary screen, TEAD-YAP interaction inhibitor project, luminescence, HEK-TIYL cells (AID 1259422);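 further: 0% = median of test compound wells and 100% = reference inhibitor wells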
- run conditions: TEAD-Gal4/YAP UAS-luciferase luminescence, at 9.12 µM
Hit rate of the full screen: of about 640,000 compounds, about 9,300 (1.5%) were called active. Rule as the data show it: active = inhibition above about 32%; inactive = the rest. The sample as a whole holds a higher share of actives than the screen did.
Log the outcome using a class from T for active, F for inactive

>>> class("Cc1ccc(NC(=O)CSc2nc3cc4c(cc3cc2C#N)OCCO4)cc1")
"F"
>>> class("CCOC(=O)C1=C(C)N(c2ccc(C)c(C)c2)C(=O)/C1=C\\c1cccs1")
"F"
>>> class("Cc1nc(NC(=O)CSc2nnc(-c3ccccc3)n2C)sc1C")
"F"
>>> class("O=C(CSc1nc(=O)[nH]c2c1CCC2)N1CCCCCC1")
"F"
>>> class("Fc1ccccc1CSc1nc(NCC2CCCO2)c2ccccc2n1 (configuration not stated)")
"F"

Request: Could you kindly confirm the outcome this assay logged for CCOc1ccccc1CN1CCOc2ccc(C(O)c3cccnc3)cc2C1 (configuration not stated) ?
Response: F

Request: # fetch the recorded call for "COc1cc(C(=O)Oc2ccccc2Cl)cc(OC)c1OC" here
Response: F

Request: State the result this test recorded for "CCS(=O)(=O)Nc1cccc(N2CCC(NCCn3nc(C)cc3C)CC2)c1" .
Response: F

Request: Lab log entry: "Cc1cc(C)nc(NC(N)=NCCC(C)C)n1" — outcome as called in the assay?
Response: F

Request: I'd appreciate the recorded outcome for "CC(=O)Nc1ccc(NC(=O)c2sc3nc4c(cc3c2N)CCCCCC4)cc1" from this test.
Response: F

Request: Short answer needed: outcome of this test for Cc1csc(C(C#N)C(=O)COC(=O)c2sc3cc(F)ccc3c2Cl)n1 (configuration not stated) ?
Response: F

Request: What was the test verdict on "Fc1ccc(CSc2nc(NCc3ccccc3)c3ccccc3n2)cc1" ?
Response: F

Request: Hey, what did the test say about "COc1cccc(N2CCN(CC(=O)Nc3ccccc3C(N)=O)CC2)c1" ?
Response: T

Request: Hi, sorry to bother you, what did the test record for COc1ccc(N2CC(CNC(=O)c3cccs3)CC2=O)cc1 (configuration not stated) ?
Response: F

Request: For "CCOC(=O)c1ccc(CN(Cc2ccc(Br)cc2)S(=O)(=O)c2cc(Cl)cc(Cl)c2)cc1" , what call appears in the results of this test?
Response: F

Request: Returns: the outcome recorded for "Cc1ccc(NC(=O)CN2CCN(c3cccc(Cl)c3)CC2)cc1" in this assay.
Response: F

Request: How did this test come out for CC1CCc2sc(NC(=O)c3ccccc3F)c(C#N)c2C1 (configuration not stated) ?
Response: F

Request: Entry Cc1cc(N2CCCC2)nc2ccc(NC(=S)NCC3CCCO3)cc12 (configuration not stated) : call = ?
Response: F

Request: Returns: the outcome recorded for O=C(NCCc1ccccc1)C1CCC(Cn2c(SCc3ccc(Cl)cc3)nc3ccccc3c2=O)CC1 (configuration not stated) in this assay.
Response: F

Request: Entry "FC(F)(F)c1cccc(Nc2nccn3c(-c4ccc(N5CCOCC5)cc4)cnc23)c1" : call = ?
Response: F

Request: What did the test return for "Nc1c(C(=O)c2ccc(Cl)cc2)sc2nc3c(cc12)CCCCCC3" ?
Response: F

Request: I'd appreciate the recorded outcome for "c1ccc(CN2CCC(Nc3nc(-c4ccccc4)nc4c3ncn4C3CCCCC3)CC2)cc1" from this test.
Response: F

###

- test method notes: TEAD-YAP interaction inhibition, primary screen, TEAD-YAP interaction inhibitor project, luminescence, HEK-TIYL cells (AID 1259422);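 further: 0% = median of test compound wells and 100% = reference inhibitor wells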
- run conditions: TEAD-Gal4/YAP UAS-luciferase luminescence, at 9.12 µM, active compounds read high
In all, about 640,000 compounds went through this assay and about 9,300 (1.5%) were called active. The sample as a whole holds a higher share of actives than the screen did.
measurement type: inhibition

Some solved cases for reference:
>>> val("O=C(Nc1c(C(=O)N2CCC(Cc3ccccc3)CC2)cnn1-c1ccccc1)c1ccco1")
"-7.49% (inactive)"
>>> val("CCOc1ccc(C2Oc3c(Br)cc(Br)cc3C=C2[N+](=O)[O-])cc1OC (stereo not given)")
"86% (active)"
>>> val("COC(=O)C1=C(C)N(CC2CCCO2)C(=O)/C1=C\\c1cc(C)n(-c2cccc(C)c2)c1C (stereo not given)")
"0.89% (inactive)"
>>> val("Cc1c(/C=N\\Nc2ccc([N+](=O)[O-])cc2)c2ccccc2n1C")
"12.8% (inactive)"
>>> val("O=C(NCCc1ccccc1)c1cc(Sc2ccccc2Cl)nc2ccccc12")
"-11.2% (inactive)"
>>> val("COc1ccc(-c2cnnc(N(C)Cc3cnn(C)c3)n2)cc1")
"36.4% (active)"

Request: Assign inhibition to the following record: "O=C(Cn1cnc2ccc(Br)cc2c1=O)OC1CCCCC1"
Response: -11.3% (inactive)

###

- test method notes: TEAD-YAP interaction inhibition, primary screen, TEAD-YAP interaction inhibitor project, luminescence, HEK-TIYL cells (AID 1259422);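 further: 0% = median of test compound wells and 100% = reference inhibitor wells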
- run conditions: TEAD-Gal4/YAP UAS-luciferase luminescence, at 9.12 µM
Screen size: about 640,000 compounds; about 9,300 (1.5%) were called active. No stated cut-off is given here; in the data, active means inhibition above about 32%; inactive means the rest. The sample holds actives, similar compounds and a random draw of the others, so the mix is not that of the screen.
Respond with a class label; see active, inactive

>>> class("Cc1sc2ncn(CC(=O)NCCCC(=O)NCCC3=CCCCC3)c(=O)c2c1C")
"inactive"
>>> class("O=C(/C=C/c1ccccn1)c1ccc2c(c1)OCO2")
"inactive"
>>> class("COc1cc(C(=O)N/N=C\\c2ccc(-c3cccc(C(=O)O)c3)o2)cc(OC)c1OC")
"active"
>>> class("CCOC(=O)c1cc(S(=O)(=O)NCc2ccc(Cl)cc2)cn1C")
"inactive"
>>> class("CCCCC(=O)NC(c1ccco1)c1ccc2cccnc2c1O (configuration not stated)")
"inactive"

Request: Answer briefly: the call reported for "CN(C)c1nc(N)nc(CSc2nnnn2-c2cccc3ccccc23)n1" in this assay.
Response: active

Request: Identify the outcome logged in this assay for the compound shown: "COc1ccc(Nc2ncc(-c3cccc(NC(C)=O)c3)n3ccnc23)cc1"
Response: inactive

Request: Test call for this compound, please: "CCCOC(=O)c1ccc(NC(=O)c2cc(OC)c(OC)c(OC)c2)cc1"
Response: inactive

Reference source: PubChem BioAssay AID1259422
